measured.on: T1, Cyno CD33 full length, expressed on HEK293F cells (cynomolgus monkey)
T1 construct: HEK293F cells transduced with lentivirus containing full length cyno CD33 (Genbank XP_005590138.1); also called cyCD33
method: flow cytometry, HEK293F cells expressing cyno CD33
Protocol: OMNIRat antibodies identified via immunization, v-region cloned and subsequently expressed and purified were characterized further for binding to CD33 expressing cells and binding to recombinant antigens. The purified antibodies were assessed for binding to stably transfected HEK293F cells expressing human CD33 or cyno CD33 (generation described above) along with the parental HEK293F as negative control. […] Antibody binding was assessed by the mean fluorescence intensity in the AF647 channel.
param class (str): category from MFI at 0 nM mAb (background); see ranges low band: < 80 MFI; middle band: ≥ 80 MFI and < 90 MFI; high band: ≥ 90 MFI

C33B122 (antibody, IgG1, V domains shown, huIgG1 F405L; also called C33F127; C33H92/C33L30) VH: QLQLQESGPGLVKPSETLSLTCTVSGGSIRSSSYYWGWIRQPPGKGPEWIGSIYSSGNTYYNPSLKSRVTISVDTSKNQFSLKLISMTAADTAVFYCARLAATIVVPAARYFDCWGQGTLVTVSS VL: SYELTQPPSVSVSPGQTVSISCSGDRLGDKYACWYQQKPGQSPVLVIYQDSKRPSGIPERFSGSNSGNTATLTISGTQAMDEADYYCQAWDSSSYVFGTGTKVTVL	middle band
C33B82 (antibody, IgG1, V domains shown, huIgG1 F405L; also called C33F87; C33H78/C33L57) VH: QVQLVESGGGVVQPGRSLRLSCAASGFTFSSYGMHWVRQAPGKGLEWVAVISYDGSNKYYADSVKGRFTISRDNSKNTLFLQMNSLRAEDTAVYYCAKDFRYFDWLPPDSSSYYGMDVWGQGTTVTVSS VL: SYELTQPPSVSVSPGQTASITCSGDELGNKYACWYQQKPGQSPVVVVYQDRKRPSGIPERFSGSNFGNTATLTISGTQAMDEADYYCQAWDSSTVVFGGGTKLTVL	middle band
C33B89 (antibody, IgG1, V domains shown, huIgG1 F405L; also called C33F94; C33H90/C33L51) VH: QVQLQQSGPGLVKPSQTLSLTCAISGDSVSSNSAAWNWIRQSPSRGLEWLGRTYYRSKWYNDYALSVQSRITINPDTSKNQFSLQLNSVTPEDTAVYYCAREVAVAASFDYWGQGTLVTVSS VL: SYVLTQPPSVSVAPGQTARITCGGNNIGSKSVHWSQQKPGQAPVLVVYDDSDRPSGIPERFSGSNSGNTATLTISRVEAGDEADYYCQVWDSNSDHVVFGGGTKLTVL	high band
C33B79 (antibody, IgG1, V domains shown, huIgG1 F405L; also called C33F84; C33H74/C33L38) VH: QVQLVESGGGVVQPGRSLRLSCAASRFTFSSYGMHWVRQAPGKGLEWVAVISYDGSNKYYADSVKGRFTISRDNSKNTLYLQMNSLRAEDTAVHYCAKDFRSFDWLPPDSASYHGMDVWGQGTTVTVSS VL: SYELTQPPSVSVPPGQTASITCSGDKLGDKYACWYQQKPGQSPVLVIYQDNKRPSGIPERFSGSNSGNTATLTISGTQAMDEADYYCQAWGRNTVVFGGGTKLTVL	low band
C33B124 (antibody, IgG1, V domains shown, huIgG1 F405L; also called C33F129; C33H73/C33L32) VH: EVQLLESGGGLVQPGGSLRLSCAASRFTFSSYAMTWVRQAPGKGLEWVSTINISGGSTYYADSVKGRFTISRDNSKNTLYLQMNSLRAEDTAVYYCTKGGYSSGPFDYWGQGTLVSVSS VL: SYELTQPPSVSVSPGQTASITCSGDKLGDKYVRWYQQKTGQSPVLVMYQDSKRPSGIRERFYGSNSGNTATPTISGTQAVDEAEYYCQAWDSSTGVVFGGGTKLTVL	high band
C33B52 (antibody, IgG1, V domains shown, huIgG1 F405L; also called C33F57; C33H42/C33L8) VH: QLQLQESGPGLVNPSETLSHTCTVSGGSISSSSHYWGWIRQPPGKGLEWIGKIYYSGNTYYNPSLKSRVTISIDTSKNQFSLKMSSVTAADTAVYYCARLADVVVVPAARYFDSWGQGTLVTVSS VL: SYELTQPPSVSVSPGQTASIICSGDKLGNKYACWYQQKPGQSPVLVIYQDSKRPSGIPERFSGSNSGNTATLTISGTQAVDEADYYCQAWDSSTYVFGTGTKVTVL	low band

Shifting focus to the binder that follows.
Determine which band this binder sits in: C33B73 (antibody, IgG1, V domains shown, huIgG1 F405L; also called C33F78; C33H66/C33L60) VH: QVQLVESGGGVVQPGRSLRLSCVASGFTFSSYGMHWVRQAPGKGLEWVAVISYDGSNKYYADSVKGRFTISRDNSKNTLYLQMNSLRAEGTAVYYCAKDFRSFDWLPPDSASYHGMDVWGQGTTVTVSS VL: SYELTQPPSVSVSPGQTASITCSGDKLGDKYACWYQQKPGQSPVLVIYQDGKRPSGIPERFSGSNFGNKATLTISGTQAMDEADYYCQAWDRNTVVFGGGTKLTVL
low band
